biological target: human IL-21R expressed on cells (human, UniProt Q9HBE5 20-538); assay: cell-based or functional assay
Sequence (Q9HBE5 20-538 limits assumed): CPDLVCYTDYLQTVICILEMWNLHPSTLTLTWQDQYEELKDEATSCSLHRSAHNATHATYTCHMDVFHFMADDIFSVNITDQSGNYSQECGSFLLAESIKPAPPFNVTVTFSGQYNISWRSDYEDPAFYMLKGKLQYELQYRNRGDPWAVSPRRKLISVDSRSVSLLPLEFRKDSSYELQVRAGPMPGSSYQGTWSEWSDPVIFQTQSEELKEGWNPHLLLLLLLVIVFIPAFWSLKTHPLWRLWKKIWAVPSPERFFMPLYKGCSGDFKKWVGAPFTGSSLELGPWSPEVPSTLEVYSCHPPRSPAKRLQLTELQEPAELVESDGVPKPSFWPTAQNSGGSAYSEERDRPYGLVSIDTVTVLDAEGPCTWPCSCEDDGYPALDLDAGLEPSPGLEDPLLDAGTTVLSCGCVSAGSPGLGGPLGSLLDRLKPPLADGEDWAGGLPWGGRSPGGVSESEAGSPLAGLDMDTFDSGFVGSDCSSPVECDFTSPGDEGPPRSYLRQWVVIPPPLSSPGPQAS
assay.endpoint: IC50 (nM) in Human IL-21R-TF1 Neutralization Assay
Kindly provide the numeric value in nM only, without the unit symbol.

scFv L12 (scFv) scFv: QVQLQESGPGLVKTSETLSLTCAVSGYSISSGYYWGWIRQPPGKGLEWIGSISHTGNTYYNPPLKSRVTISVDTSKNQFSLKLSSVTAADTAVYYCARGGGISRPEYWGKGTLVTVSSGGGGSGGGGSGGGGSALSSELTQDPPVSVALGQTVTLTCQGDSLRTYYASWYQQKSGQAPILLLYGKHKRPSGIPDRFSGSTSGDTASLTITGAQAEDEADYYCVARGTRGNPHVLFGGGTQLTVL :: 54.9

# context switch: different binder, same IC50 (nM) in Human IL-21R-TF1 Neutralization Assay
*Q* Look at this binder and give its reported IC50 (nM) in Human IL-21R-TF1 Neutralization Assay. scFv L20 (scFv) scFv: QVQLQESGPGLVKTSETLSLTCAVSGYSISSGYYWGWIRQPPGKGLEWIGSISHTGNTYYNPPLKSRVTISVDTSKNQFSLKLSSVTAADTAVYYCARGGGISRPEYWGKGTLVTVSSGGGGSGGGGSGGGGSALSSELTQDPPVSVALGQTVTLTCQGDSLRTYYASWYQQKSGQAPILLLYGKHKRPSGIPDRFSGSTSGDTASLTITGAQAEDEADYYCVSRSAKGNPHVLFGGGTQLTVL
*A* 57.5

These measurements were taken from patent US20090298167A1.
